# measurement description: Plasma pharmacokinetics of DEBIO1143 in patients (LC-MS/MS)
# Type: in vivo, human
# condition context: human, plasma, oral, 80 mg, day 5, n=3, median (min–max); read-out: T max
property measured: Tmax
Mention the unit after the number when you answer.

I'd like to know its Tmax. The compound in question is CN[C@@H](C)C(=O)N[C@H]1CN(C(=O)CC(C)C)CC[C@H]2CC[C@@H](C(=O)NC(c3ccccc3)c3ccccc3)N2C1=O [DEBIO1143] 2 h

---

# measurement description: Plasma pharmacokinetics of DEBIO1143 in patients (LC-MS/MS)
# Type: in vivo, human
# condition context: human, plasma, oral, 40 mg, day 5, n=1
# Description: Pharmacokinetic samples were taken from all patients on day 1 (predose, 0.5, 1, 2, 3, 4, 6, 8, 12, 18 h postdose) and on day 5 (predose, 0.5, 1, 2, 3, 4, 6, 8 h postdose) of the first cycle. […] C max and t max were determined by direct assessment of the observed concentration versus time curves. […] For the detection of cIAP-1 in paraffin-embedded human tissue, a validated immunohistochemical (IHC) assay was used. […] Plasma biomarkers were measured through commercial ELISAs. […]
property measured: AUC(0-t) (ng·h/mL)
Quick note: give the figure in ng·h/mL, leave out the unit.

Param item = CN[C@@H](C)C(=O)N[C@H]1CN(C(=O)CC(C)C)CC[C@H]2CC[C@@H](C(=O)NC(c3ccccc3)c3ccccc3)N2C1=O ; retrieve measured AUC(0-t). 1090

---

# measurement description: Plasma pharmacokinetics of DEBIO1143 in patients (LC-MS/MS)
# Format: in vivo, human
# condition context: human, plasma, oral, 40 mg, day 1, n=1; read-out: T max
property measured: Tmax (h)
Only the number, expressed in h, is required.

Give the measured Tmax of CN[C@@H](C)C(=O)N[C@H]1CN(C(=O)CC(C)C)CC[C@H]2CC[C@@H](C(=O)NC(c3ccccc3)c3ccccc3)N2C1=O [DEBIO1143] . 1

---

# measurement description: Plasma pharmacokinetics of DEBIO1143 in patients (LC-MS/MS)
# Assay type: in vivo, human
# condition context: human, plasma, oral, 180 mg, day 1, n=7, mean (SD); read-out: T 1/2 (converted)
property measured: half-life (h)
// return numeric value only (unit: h, not printed)

Query: half-life; subject: CN[C@@H](C)C(=O)N[C@H]1CN(C(=O)CC(C)C)CC[C@H]2CC[C@@H](C(=O)NC(c3ccccc3)c3ccccc3)N2C1=O 6.06

---

# measurement description: Plasma pharmacokinetics of DEBIO1143 in patients (LC-MS/MS)
# Format: in vivo, human
# condition context: human, plasma, oral, 80 mg, day 1, n=3, mean (SD)
property measured: Cmax
Express your answer as a number followed by its unit.

Please give the measured Cmax for this molecule: CN[C@@H](C)C(=O)N[C@H]1CN(C(=O)CC(C)C)CC[C@H]2CC[C@@H](C(=O)NC(c3ccccc3)c3ccccc3)N2C1=O 1330 ng/mL

---

# measurement description: Plasma pharmacokinetics of DEBIO1143 in patients (LC-MS/MS)
# Assay type: in vivo, human
# condition context: human, plasma, oral, all doses; read-out: Average T 1/2 (converted)
property measured: half-life

Entry under review: CN[C@@H](C)C(=O)N[C@H]1CN(C(=O)CC(C)C)CC[C@H]2CC[C@@H](C(=O)NC(c3ccccc3)c3ccccc3)N2C1=O [DEBIO1143] . Reported half-life? ~6 h

---

# measurement description: Plasma pharmacokinetics of DEBIO1143 in patients (LC-MS/MS)
# Format: in vivo, human
# condition context: human, plasma, oral, 120 mg, day 1, n=3, mean (SD)
property measured: Cmax
Express the reported value numerically, then name its unit.

Suppose we examine the compound CN[C@@H](C)C(=O)N[C@H]1CN(C(=O)CC(C)C)CC[C@H]2CC[C@@H](C(=O)NC(c3ccccc3)c3ccccc3)N2C1=O ; what Cmax value has been reported? 1650 ng/mL

---

# measurement description: Plasma pharmacokinetics of DEBIO1143 in patients (LC-MS/MS)
# Assay type: in vivo, human
# condition context: human, plasma, oral, 180 mg, day 1, n=7, mean (SD)
property measured: Cmax (ng/mL)
Your answer should be a plain number; it is taken to be in ng/mL.

Which value of Cmax has been reported for CN[C@@H](C)C(=O)N[C@H]1CN(C(=O)CC(C)C)CC[C@H]2CC[C@@H](C(=O)NC(c3ccccc3)c3ccccc3)N2C1=O [DEBIO1143] in the records? 2130

---

# measurement description: Plasma pharmacokinetics of DEBIO1143 in patients (LC-MS/MS)
# Format: in vivo, human
# condition context: human, plasma, oral, 10 mg, day 5, n=1
property measured: AUC(0-t) (ng·h/mL)
The reply should be a number in ng·h/mL, with the unit left off.

If you can, please state the reported AUC(0-t) value of CN[C@@H](C)C(=O)N[C@H]1CN(C(=O)CC(C)C)CC[C@H]2CC[C@@H](C(=O)NC(c3ccccc3)c3ccccc3)N2C1=O [DEBIO1143] . 103

---

# measurement description: Plasma pharmacokinetics of DEBIO1143 in patients (LC-MS/MS)
# Assay type: in vivo, human
# condition context: human, plasma, oral, 600 mg, day 5, n=3, mean (SD)
property measured: AUC(0-t)

# get_value(readout='AUC(0-t)', item= CN[C@@H](C)C(=O)N[C@H]1CN(C(=O)CC(C)C)CC[C@H]2CC[C@@H](C(=O)NC(c3ccccc3)c3ccccc3)N2C1=O ) 20200 ng·h/mL

---

# measurement description: Plasma pharmacokinetics of DEBIO1143 in patients (LC-MS/MS)
# Format: in vivo, human
# condition context: human, plasma, oral, 10 mg, day 5, n=1
property measured: Cmax

Reported Cmax, compound CN[C@@H](C)C(=O)N[C@H]1CN(C(=O)CC(C)C)CC[C@H]2CC[C@@H](C(=O)NC(c3ccccc3)c3ccccc3)N2C1=O : ____ 26.9 ng/mL

---

# measurement description: Plasma pharmacokinetics of DEBIO1143 in patients (LC-MS/MS)
# Format: in vivo, human
# condition context: human, plasma, oral, 5 mg, day 1, n=1; read-out: T max
property measured: Tmax (h)
Return type: number; implicit unit h.

Item under review: CN[C@@H](C)C(=O)N[C@H]1CN(C(=O)CC(C)C)CC[C@H]2CC[C@@H](C(=O)NC(c3ccccc3)c3ccccc3)N2C1=O [DEBIO1143] . Reported Tmax? 3

---

# measurement description: Plasma pharmacokinetics of DEBIO1143 in patients (LC-MS/MS)
# Assay type: in vivo, human
# condition context: human, plasma, oral, 40 mg, day 1, n=1
property measured: AUC(0-inf) (ng·h/mL)
Report the figure in ng·h/mL without appending any unit label.

// returns reported AUC(0-inf) for input CN[C@@H](C)C(=O)N[C@H]1CN(C(=O)CC(C)C)CC[C@H]2CC[C@@H](C(=O)NC(c3ccccc3)c3ccccc3)N2C1=O 2300

---

# measurement description: Plasma pharmacokinetics of DEBIO1143 in patients (LC-MS/MS)
# Assay type: in vivo, human
# condition context: human, plasma, oral, 180 mg, day 5, n=7, mean (SD)
property measured: AUC(0-inf) (µg·h/mL)
Give the value, in units of µg·h/mL, as a plain number.

What does the data say about its AUC(0-inf)? Entry: CN[C@@H](C)C(=O)N[C@H]1CN(C(=O)CC(C)C)CC[C@H]2CC[C@@H](C(=O)NC(c3ccccc3)c3ccccc3)N2C1=O 9.98

---

# measurement description: Plasma pharmacokinetics of DEBIO1143 in patients (LC-MS/MS)
# Format: in vivo, human
# condition context: human, plasma, oral, 260 mg, day 1, n=3, mean (SD); read-out: T 1/2 (converted)
property measured: half-life (h)
// return numeric value only (unit: h, not printed)

I'd like to know its half-life. The molecule in question is CN[C@@H](C)C(=O)N[C@H]1CN(C(=O)CC(C)C)CC[C@H]2CC[C@@H](C(=O)NC(c3ccccc3)c3ccccc3)N2C1=O 6.59

---

# measurement description: Plasma pharmacokinetics of DEBIO1143 in patients (LC-MS/MS)
# Format: in vivo, human
# condition context: human, plasma, oral, 900 mg, day 1, n=6, mean (SD)
property measured: AUC(0-inf) (ng·h/mL)
Record the value in ng·h/mL, omitting the unit from your answer.

Consider the compound shown here: CN[C@@H](C)C(=O)N[C@H]1CN(C(=O)CC(C)C)CC[C@H]2CC[C@@H](C(=O)NC(c3ccccc3)c3ccccc3)N2C1=O What is its recorded AUC(0-inf)? 61500

---

# measurement description: Plasma pharmacokinetics of DEBIO1143 in patients (LC-MS/MS)
# Format: in vivo, human
# condition context: human, plasma, oral, 260 mg, day 1, n=3, median (min–max); read-out: T max
# Procedure: Pharmacokinetic samples were taken from all patients on day 1 (predose, 0.5, 1, 2, 3, 4, 6, 8, 12, 18 h postdose) and on day 5 (predose, 0.5, 1, 2, 3, 4, 6, 8 h postdose) of the first cycle. […] C max and t max were determined by direct assessment of the observed concentration versus time curves. […] For the detection of cIAP-1 in paraffin-embedded human tissue, a validated immunohistochemical (IHC) assay was used. […] Plasma biomarkers were measured through commercial ELISAs. […]
property measured: Tmax (h)
Give the value in h but do not write h after it.

Tell me the measured Tmax of CN[C@@H](C)C(=O)N[C@H]1CN(C(=O)CC(C)C)CC[C@H]2CC[C@@H](C(=O)NC(c3ccccc3)c3ccccc3)N2C1=O , please. 3
